protocol-summary: Volume of distribution in Sprague-Dawley rat at 2.5 mg/kg, iv measured for 5 min to 72 hrs by LC-MS/MS analysis
Type: ADME, organism-based
stated-conditions: in vivo
observation-type: Vd (L/kg)
State just the number; it will be interpreted in L/kg.

query: Please look up its Vd: `Nc1nccc(Oc2ccc(Nc3nccc4[nH]cc(-c5ccc(F)cc5)c(=O)c34)cc2F)c1Cl`
result: 0.4

###

Recorded inhibition at 10 µM values for a group of compounds are listed next.
Test system: HT-29
protocol-summary: Antiproliferative activity against human HT-29 cells at 10 uM incubated for 72 hrs by MTT assay relative to control
Assay type: functional
stated-conditions: HT-29, 72 h
Entry rule: numbers only, all in %.

Worked cases, inhibition at 10 µM given:
{"compound": "CC(C)(C)C(=O)Nc1cc(Oc2ccc(Nc3nccc4[nH]cc(-c5ccc(F)cc5)c(=O)c34)cc2F)ccn1", "inhibition at 10 µM / %": -45.8}
{"compound": "O=C(Nc1cc(Oc2ccc(Nc3nccc4[nH]cc(-c5ccc(F)cc5)c(=O)c34)cc2F)ccn1)C1CC1", "inhibition at 10 µM / %": 25.5}
{"compound": "CC(O)C(=O)Nc1cc(Oc2ccc(Nc3nccc4[nH]cc(-c5ccc(F)cc5)c(=O)c34)cc2F)ccn1 (centres undefined)", "inhibition at 10 µM / %": 47.8}

query: What value of inhibition at 10 µM has been reported for the following compound? `CCC(=O)Nc1cc(Oc2ccc(Nc3nccc4[nH]cc(-c5ccc(F)cc5)c(=O)c34)cc2F)ccn1`
result: 68.7

###

// Tmax lookup, one value per entry
protocol-summary: Tmax in Sprague-Dawley rat at 5.0 mg/kg, ig measured for 15 min to 72 hrs by LC-MS/MS analysis
Assay type: ADME, organism-based
stated-conditions: in vivo, po
Your answer should be a plain number; it is taken to be in h.

{"chemical-string": "Cn1cc(-c2ccc(F)cc2)c(=O)c2c(Nc3ccc(Oc4ccnc(NC(=O)C5CC5)c4)c(F)c3)nccc21", "measured-result": 8.7}

Consider the record given below.
query: What Tmax value was documented for this compound, `O=C(Nc1cc(Oc2ccc(Nc3nccc4[nH]cc(-c5ccc(F)cc5)c(=O)c34)cc2F)ccn1)C1CC1` ?
result: 7.3

###

protocol-summary: Half life in Sprague-Dawley rat at 5.0 mg/kg, ig measured for 15 min to 72 hrs by LC-MS/MS analysis
Type: ADME, organism-based
stated-conditions: in vivo, po
observation-type: half-life (h)
Entry rule: numbers only, all in h.

{"chemical-string": "Cn1cc(-c2ccc(F)cc2)c(=O)c2c(Nc3ccc(Oc4ccnc(NC(=O)C5CC5)c4)c(F)c3)nccc21", "unit": "h", "half-life": 20.6}

query: Please look up its half-life: `O=C(Nc1cc(Oc2ccc(Nc3nccc4[nH]cc(-c5ccc(F)cc5)c(=O)c34)cc2F)ccn1)C1CC1`
result: 6.4

###

assayed-system: High affinity nerve growth factor receptor (Homo sapiens)
Sequence (P04629 whole entry, the tested form may be a part): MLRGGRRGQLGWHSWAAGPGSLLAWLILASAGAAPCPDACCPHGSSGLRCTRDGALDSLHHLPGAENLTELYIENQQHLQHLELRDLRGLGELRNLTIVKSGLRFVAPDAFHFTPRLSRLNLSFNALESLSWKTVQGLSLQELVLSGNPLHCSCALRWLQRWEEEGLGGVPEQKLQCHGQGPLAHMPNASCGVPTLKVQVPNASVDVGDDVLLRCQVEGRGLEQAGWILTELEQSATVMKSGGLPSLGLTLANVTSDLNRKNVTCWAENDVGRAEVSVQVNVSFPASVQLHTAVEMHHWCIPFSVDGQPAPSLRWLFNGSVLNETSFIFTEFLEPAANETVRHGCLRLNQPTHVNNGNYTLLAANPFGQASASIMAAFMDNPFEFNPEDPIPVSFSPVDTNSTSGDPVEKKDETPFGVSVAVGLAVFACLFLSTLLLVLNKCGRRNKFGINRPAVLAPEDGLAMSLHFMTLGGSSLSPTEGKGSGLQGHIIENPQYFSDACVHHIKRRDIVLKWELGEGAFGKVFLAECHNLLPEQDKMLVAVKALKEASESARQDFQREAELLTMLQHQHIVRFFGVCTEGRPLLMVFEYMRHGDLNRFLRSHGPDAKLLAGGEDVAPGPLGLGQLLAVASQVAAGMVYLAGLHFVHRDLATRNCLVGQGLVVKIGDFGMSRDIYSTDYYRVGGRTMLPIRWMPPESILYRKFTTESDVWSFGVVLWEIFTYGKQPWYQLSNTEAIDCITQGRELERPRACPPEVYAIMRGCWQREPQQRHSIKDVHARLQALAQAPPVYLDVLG
protocol-summary: Inhibition of recombinant human His-tagged TRKA catalytic domain (441 to 796 residues) expressed in baculovirus expression system using biotin as substrate preincubated for 5 mins followed by substrate addition and measured after 30 to 60 mins in presence of ATP by HTRF assay
observation-type: pIC50
Remember, pIC50 is on a log scale: it is -log10 of the molar concentration.

query: So what pIC50 did `Cn1cc(-c2ccc(F)cc2)c(=O)c2c(Nc3ccc(Oc4ccnc(NC(=O)C5CC5)c4)c(F)c3)nccc21` get with High affinity nerve growth factor receptor (Homo sapiens)?
result: 7.48
